system: EPO; assay: Mouse Serum EPO Assay; type: in vivo
Value kind: pEC50
The scale used: pEC50 is minus the common logarithm of the concentration in molar units.

The measured pEC50 associated with O=c1c(O)cccn1Cc1cccc(Cl)c1 [Compound F2] reads 4.85
